# ASSAY PROTOCOL: Mammalian cell cytotoxicity, MTS viability assay, 3T3
# Assay type: cell-based
# EXPERIMENTAL CONTEXT: mouse, 3T3 fibroblasts (ATCC CRL-1658), 3T3 cells, 1 h exposure without serum
QUANTITY NAME: EC50 at 1 h (µM)
Give the number; µM is assumed, so skip it.

Here's what some known entries look like.
compound_structure_string=N=C(N)N1CCN(c2ccc(-c3cc(-c4ccc(N5CCN(C(=N)N)CC5)cc4)ncn3)cc2)CC1 observed_value=311
compound_structure_string=N=C(N)NCCCc1cc(CCCNC(=N)N)cc(NC(=O)c2ccc(C(=O)Nc3cc(CCCNC(=N)N)cc(CCCNC(=N)N)c3)cc2)c1 observed_value=358

# ---- query molecule ----
Request: Give the value of EC50 at 1 h reported for the following: `NCCCOc1cc(OCCCN)cc(-c2ccc3c(c2)c2cc(-c4cc(OCCCN)cc(OCCCN)c4)ccc2n3CCCN)c1`
Response: 436
